What Tm was measured for each of the following?
# ASSAY PROCEDURE: melting temperature; UV melt of duplexes
# COND: sodium 1.02 M; strand 2 µM
Give bare numbers, in °C.

SUBSTANCE: AATATCTCTCATGCGCCAAGCTACA+TGTAGCTTGGCGCATGAGAGATATT (((((((((((((((((((((((((+)))))))))))))))))))))))))
Tm (°C): 76.5

SUBSTANCE: ATTGATATCCTTTTCTATTCATCTTTCATT+AATGAAAGATGAATAGAAAAGGATATCAAT ((((((((((((((((((((((((((((((+))))))))))))))))))))))))))))))
Tm (°C): 70.4

Please look at the items below and tell me Tm for each one, in order.
1. CCACTATACCATCTATGTAC+GTACATAGATGGTATAGTGG ((((((((((((((((((((+))))))))))))))))))))
2. GCCAACTCCGTCGCCGTTCGTGCGC+GCGCACGAACGGCGACGGAGTTGGC (((((((((((((((((((((((((+)))))))))))))))))))))))))
3. GCGAGCGACAGGTTACTTGGCTGAT+ATCAGCCAAGTAACCTGTCGCTCGC (((((((((((((((((((((((((+)))))))))))))))))))))))))
4. AGTCTGGTCTGGATCTGAGAACTTCAGGCT+AGCCTGAAGTTCTCAGATCCAGACCAGACT ((((((((((((((((((((((((((((((+))))))))))))))))))))))))))))))

Output line:
64.4
84.6
80.1
80.6
